# SYSTEM_TESTED: T1, vascular endothelial growth factor receptor 2 (UniProt P35968 20-764, limits assumed)
# T1 construct: also called VEGFR2; kinase insert domain receptor
# PROTOCOL_DESCRIPTION: ELISA, binding affinity to VEGFR2
EXPERIMENTAL_ENDPOINT: IC50 (nM)
All answers are understood in nM, so give the number only.

[[record]]
binder = "C7-LL2-His (designed binder, not shown: small tags and cut ends, Designed disulfide bond between Cys17 and Cys60., His-tagged C7 variant with one introduced disulfide bond) VSDVPRDLEVVAATPTCLLISWRHPHFPTRYYRITYGETGGNSPVQEFTVPLQPPTATICGLKPGVDYTITVYAVTDGRNGRLLSIPISINYRT"
readout_value = 18.9

[[record]]
binder = "C7-SL1-His (designed binder, not shown: small tags and cut ends, Designed disulfide bond between Cys8 and Cys89., His-tagged C7 variant with one introduced disulfide bond) VSDVPRDCEVVAATPTSLLISWRHPHFPTRYYRITYGETGGNSPVQEFTVPLQPPTATISGLKPGVDYTITVYAVTDGRNGRLLSIPICINYRT"
readout_value = 17.6

[[record]]
binder = "C7-SS1-His (designed binder, not shown: small tags and cut ends, Designed disulfide bond between Cys19 and Cys58., His-tagged C7 variant with one introduced disulfide bond) VSDVPRDLEVVAATPTSLCISWRHPHFPTRYYRITYGETGGNSPVQEFTVPLQPPTACISGLKPGVDYTITVYAVTDGRNGRLLSIPISINYRT"
readout_value = 17.5

[[record]]
binder = "protein C7 (designed binder) VSDVPRDLEVVAATPTSLLISWRHPHFPTRYYRITYGETGGNSPVQEFTVPLQPPTATISGLKPGVDYTITVYAVTDGRNGRLLSIPISINYRT"
readout_value = 16.8

[[record]]
binder = "C7-SL2-His (designed binder, Designed intramolecular disulfide bond Cys35-Cys45 (printed as T36/V46 in the Met-included numbering)., His-tagged C7 variant with one introduced disulfide bond; not shown: N-terminal Met and C-terminal His tag of the expressed construct) VSDVPRDLEVVAATPTSLLISWRHPHFPTRYYRICYGETGGNSPCQEFTVPLQPPTATISGLKPGVDYTITVYAVTDGRNGRLLSIPISINYRT"
readout_value = 17.1

[[record]]
binder = "C7-LL3-His (designed binder, not shown: small tags and cut ends, Designed disulfide bond between Cys39 and Cys67., His-tagged C7 variant with one introduced disulfide bond) VSDVPRDLEVVAATPTSLLISWRHPHFPTRYYRITYGECGGNSPVQEFTVPLQPPTATISGLKPGVCYTITVYAVTDGRNGRLLSIPISINYRT"
readout_value = 9.8


Read the next record carefully.
QUERY: # IC50 lookup, item C7-SL4-His (designed binder, not shown: small tags and cut ends, Designed disulfide bond between Cys67 and Cys91., His-tagged C7 variant with one introduced disulfide bond) VSDVPRDLEVVAATPTSLLISWRHPHFPTRYYRITYGETGGNSPVQEFTVPLQPPTATISGLKPGVCYTITVYAVTDGRNGRLLSIPISICYRT
RESULT: 18.5
